The origin of these recorded values is ChEMBL document CHEMBL4673204.

# pKd per entry for Splicing factor 45 (Homo sapiens, UniProt Q96I25)
pKd: −log10 of the molar value. Peptide text beside a SMILES is read from it.
experimental readout: pKd

# compound, experimental value
records = [
    ("N=C(N)NCCC[C@@H]1NC(=O)[C@H](CO)NC(=O)[C@H](N)CCCCNC(=O)CC[C@H](C(=O)N[C@@H](Cc2c[nH]c3ccccc23)C(=O)O)NC(=O)[C@H](CC(=O)O)NC(=O)[C@H](Cc2c[nH]c3ccccc23)NC1=O", 6.10),
    ("N=C(N)NCCC[C@@H]1NC(=O)[C@H](CO)NC(=O)[C@H](N)CCCCNC(=O)CC[C@H](C(=O)N[C@@H](Cc2cnc[nH]2)C(=O)O)NC(=O)[C@H](CC(=O)O)NC(=O)[C@H](Cc2c[nH]c3ccccc23)NC1=O", 6.02),
    ("N=C(N)NCCC[C@H](NC(=O)[C@H](CO)NC(=O)[C@@H](N)CCCCN)C(=O)N[C@@H](Cc1c[nH]c2ccccc12)C(=O)N[C@@H](CC(=O)O)C(=O)N[C@@H](CCC(=O)O)C(=O)O (H-KSRWDE-OH)", 4.80),
    ("N=C(N)NCCC[C@H](NC(=O)[C@H]1CCC(=O)NCCCC[C@@H](N)C(=O)N[C@@H](CO)C(=O)N[C@@H](CCCNC(=N)N)C(=O)N[C@@H](Cc2c[nH]c3ccccc23)C(=O)N[C@@H](CC(=O)O)C(=O)N1)C(=O)O", 6.29),
    ("N=C(N)NCCC[C@@H]1NC(=O)[C@H](CO)NC(=O)[C@H](N)CCCCNC(=O)CC[C@H](C(=O)NC(CCCCN=C(N)N)C(=O)O)NC(=O)[C@H](CC(=O)O)NC(=O)[C@H](Cc2c[nH]c3ccccc23)NC1=O (stereo not given in full)", 6.12),
]
